System: HeLa cells
Experiment: Cytosolic entry efficiency of naphthofluorescein
Format: cell-based
Settings: 5 μM NF-labeled peptide, 2 h, 10% FBS, flow cytometry
Where a SMILES comes first, the peptide text is derived from it. [ ]: non-standard residue; d: D form. The star is where a group is joined. Decanoyl = CCCCCCCCCC(=O)*; Dap = NC[C@H](N)C(=O)O
readout: fold decrease in CPP activity (cellular entry efficiency) relative to peptide 4

Example molecules with recorded fold decrease in CPP activity (cellular entry efficiency) relative to peptide 4:
CCCCCCCCCC(=O)NC[C@@H]1NC(=O)[C@H](CCC(N)=O)NC(=O)[C@@H](CCCNC(=N)N)NC(=O)[C@H](CCCNC(=N)N)NC(=O)[C@@H](CCCNC(=N)N)NC(=O)[C@H](CCCNC(=N)N)NC1=O [compound 9] (cyclo([Dap](Decanoyl)R[dR]R[dR]Q)); ~ 3 fold
CCCCCCCCCC(=O)NC[C@@H]1NC(=O)[C@H](CCC(N)=O)NC(=O)[C@H](CCCNC(=N)N)NC(=O)[C@H](CCCNC(=N)N)NC(=O)[C@H](CCCNC(=N)N)NC(=O)[C@H](C)NC1=O [compound 12] (cyclo(ARRRQ[Dap](Decanoyl))); ~ 2 fold
CCCCCCCCCC(=O)NC[C@@H]1NC(=O)[C@H](CCC(N)=O)NC(=O)[C@H](CCCNC(=N)N)NC(=O)[C@H](CCCNC(=N)N)NC(=O)[C@H](CCCNC(=N)N)NC(=O)[C@H](CCCNC(=N)N)NC(=O)[C@H](CCCNC(=N)N)NC1=O [peptide 14]; ~5 fold

For the next question, use this molecule.
Prompt: Consider the molecule shown here: CCCCCCCCCC(=O)NC[C@@H]1NC(=O)[C@H](CCC(N)=O)NC(=O)[C@H](CCCNC(=N)N)NC(=O)[C@@H](CCCNC(=N)N)NC(=O)[C@H](CCCNC(=N)N)NC(=O)[C@@H](CCCNC(=N)N)NC1=O [compound 10] (cyclo([Dap](Decanoyl)[dR]R[dR]RQ)) What is its recorded fold decrease in CPP activity (cellular entry efficiency) relative to peptide 4?
Response: ~ 3 fold
